Provide the recorded Degradation assay (Degradation %) 10 μM for the entries that follow.
# system_tested: MLKL (Homo sapiens, UniProt Q8NB16)
# Sequence (Q8NB16 1-471): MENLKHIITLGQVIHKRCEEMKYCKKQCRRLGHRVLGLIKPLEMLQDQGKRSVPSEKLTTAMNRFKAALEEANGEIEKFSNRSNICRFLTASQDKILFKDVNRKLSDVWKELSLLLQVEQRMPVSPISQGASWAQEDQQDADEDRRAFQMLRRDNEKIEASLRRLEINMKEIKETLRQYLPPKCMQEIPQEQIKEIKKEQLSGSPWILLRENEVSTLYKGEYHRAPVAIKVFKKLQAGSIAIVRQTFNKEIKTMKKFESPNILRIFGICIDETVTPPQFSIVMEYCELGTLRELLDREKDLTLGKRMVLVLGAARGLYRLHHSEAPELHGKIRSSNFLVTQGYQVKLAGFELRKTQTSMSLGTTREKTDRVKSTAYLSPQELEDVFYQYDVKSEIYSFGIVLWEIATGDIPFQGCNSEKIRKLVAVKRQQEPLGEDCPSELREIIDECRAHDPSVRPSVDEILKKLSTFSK
# protocol_description: MLKL degradation assay in HepG2 cell line (western blot)
# Type: cell-based
# Set-up: endogenous in cells; host or cells: HepG2 or HaCaT
# details: compound 10 μM; cell line not given
Show the value, then the unit it is measured in.

Value sought for every listed compound: Degradation assay (Degradation %) 10 μM.
1. Nc1ncc(-c2cnn(C3CCN(CCOCCOCCOCCNC(=O)C4CCN(c5ccc6c(c5)C(=O)N(C5CCC(=O)NC5=O)C6=O)CC4)CC3)c2)nc1C(=O)O[C@@H](C(=O)Nc1ccc(F)cc1)c1ccccc1 (some centres unmarked)
2. Nc1ncc(-c2cnn([C@@H]3CCN(CCOCCOCCNC(=O)CNc4cccc5c4C(=O)N(C4CCC(=O)NC4=O)C5=O)C3)c2)nc1C(=O)OC(C(=O)Nc1ccc(F)cc1)c1ccccc1 (some centres unmarked)

A.
83.53%
37.75%

Value sought for every listed compound: Degradation assay (Degradation %) 10 μM.
1. Nc1ncc(-c2cnn(C3CCN(CCCCCCCCCCNC(=O)COc4ccc5nnn(C6CCC(=O)NC6=O)c(=O)c5c4)CC3)c2)nc1C(=O)O[C@@H](C(=O)Nc1ccc(F)cc1)c1ccccc1 (some centres unmarked)
2. Nc1ncc(-c2cnn(C3CCN(CC4CN(c5cccc6c5C(=O)N(C5CCC(=O)NC5=O)C6=O)CCO4)CC3)c2)nc1C(=O)OC(C(=O)Nc1ccc(F)cc1)c1ccccc1 (centres unmarked)

A.
1. 23.76%
2. 27.19%

Q. May I ask what Degradation assay (Degradation %) 10 μM has been recorded for `Nc1ncc(-c2cnn(C3CCN(CCC4CCN(C(=O)c5ccc6c(N7CCC(=O)NC7=O)coc6c5)CC4)CC3)c2)nc1C(=O)O[C@@H](C(=O)Nc1ccc(F)cc1)c1ccccc1` ?
A. 75.10%

###

# system_tested: MLKL (Homo sapiens)
pKd: −log10 of the molar value.
Classify as follows. Reported pKd greater than or equal to 8: 1. Reported pKd below: -1.

>>> classification("Nc1ncc(-c2cnn(C3CCN(CC4CCN(CC(=O)N5CC(Nc6cccc7c6C(=O)N(C6CCC(=O)NC6=O)C7=O)C5)CC4)CC3)c2)nc1C(=O)OC(C(=O)Nc1ccc(F)cc1)c1ccccc1 (centres unmarked)")
-1
>>> classification("Nc1ncc(-c2cnn(C3CCN(CCC4CCN(c5ccc6c(c5)C(=O)N(C5CCC(=O)NC5=O)C6=O)CC4)CC3)c2)nc1C(=O)O[C@@H](C(=O)Nc1ccc(F)cc1)c1ccccc1 (some centres unmarked)")
1

Q. Could you tell me if the measured pKd of Nc1ncc(-c2cnn(C3CCN(CCC4CCN(C(=O)COc5cccc6c5C(=O)N(C5CCC(=O)NC5=O)C6=O)CC4)CC3)c2)nc1C(=O)O[C@@H](C(=O)Nc1ccc(F)cc1)c1ccccc1 (some centres unmarked) reaches 8 or more?
A. 1

###

# system_tested: MLKL (Homo sapiens, UniProt Q8NB16)
# protocol_description: MLKL degradation assay in HepG2 cell line (western blot)
# Assay type: cell-based
# Parameters: endogenous in cells; host or cells: HepG2 or HaCaT
# details: compound 10 μM; cell line not given
quantity_kind: Degradation assay (Degradation %) 10 μM
Give bare numbers, in %.

>>> reported_value("Nc1ncc(-c2cnn(C3CCN(C(=O)CC4CCN(C(=O)CC5CCN(c6ccc7c(c6)C(=O)N(C6CCC(=O)NC6=O)C7=O)CC5)CC4)CC3)c2)nc1C(=O)O[C@@H](C(=O)Nc1ccc(F)cc1)c1ccccc1 (some centres unmarked) [TDH-402]")
48.34

# input for lookup
Q. May I ask what Degradation assay (Degradation %) 10 μM has been recorded for Nc1ncc(-c2cnn(C3CCN(C[C@H]4CC[C@H](CNC(=O)C5CCN(c6ccc7c(c6)C(=O)N(C6CCC(=O)NC6=O)C7=O)CC5)CC4)CC3)c2)nc1C(=O)O[C@@H](C(=O)Nc1ccc(F)cc1)c1ccccc1 (some centres unmarked) [TDH-350] ?
A. 88.73

###

# system_tested: MLKL (Homo sapiens, UniProt Q8NB16)
# protocol_description: MLKL degradation assay in HepG2 cell line (western blot)
# Format: cell-based
# Set-up: endogenous in cells; host or cells: HepG2 or HaCaT
# details: compound 10 μM; cell line not given
Recorded Degradation assay (Degradation %) 10 μM determines the group label, using range 1 (below 50%), range 2 (50% to below 70%), range 3 (70% or more)

>>> classification("Nc1ncc(-c2cnn(C3CCN(CC4CCN(C(=O)CC5CCN(c6ccc7c(c6)C(=O)N(C6CCC(=O)NC6=O)C7=O)CC5)CC4)CC3)c2)nc1C(=O)O[C@@H](C(=O)Nc1ccc(F)cc1)c1ccccc1 (stereo partly shown)")
"range 1"

Q. Exam item: assign Nc1ncc(-c2cnn(C3CCN(C(=O)COC4CCN(C(=O)COc5cccc6c5C(=O)N(C5CCC(=O)NC5=O)C6=O)CC4)CC3)c2)nc1C(=O)O[C@@H](C(=O)Nc1ccc(F)cc1)c1ccccc1 (stereo partly shown) to the correct category.
A. range 3

Q. And for Nc1ncc(-c2cnn(C3CCN(CCC4CCN(C(=O)CC5CCN(c6ccc7c(c6)C(=O)N(C6CCC(=O)NC6=O)C7=O)CC5)CC4)CC3)c2)nc1C(=O)O[C@@H](C(=O)Nc1ccc(F)cc1)c1ccccc1 (stereo partly shown) ?
A. range 3

Q. And for Nc1ncc(-c2cnn(C3CCN(CC4CN(C(=O)CNc5ccc6c(c5)C(=O)N(C5CCC(=O)NC5=O)C6=O)CCO4)CC3)c2)nc1C(=O)OC(C(=O)Nc1ccc(F)cc1)c1ccccc1 (stereo not shown) ?
A. range 1

Q. And for Nc1ncc(-c2cnn(C3CCN(CC4CCN(c5ccc6nnn(C7CCC(=O)NC7=O)c(=O)c6c5)CC4)CC3)c2)nc1C(=O)O[C@@H](C(=O)Nc1ccc(F)cc1)c1ccccc1 (stereo partly shown) ?
A. range 2

Q. And for Nc1ncc(-c2cnn(C3CCN(CC4CCN(C(=O)C5CN(c6ccc7c(c6)C(=O)N(C6CCC(=O)NC6=O)C7=O)C5)CC4)CC3)c2)nc1C(=O)O[C@@H](C(=O)Nc1ccc(F)cc1)c1ccccc1 (stereo partly shown) ?
A. range 2

Q. And for Nc1ncc(-c2cnn(C3CCN(CCOC4CCN(C(=O)COc5ccc6c(c5)C(=O)N(C5CCC(=O)NC5=O)C6=O)CC4)CC3)c2)nc1C(=O)OC(C(=O)Nc1ccc(F)cc1)c1ccccc1 (stereo not shown) ?
A. range 3

Q. And for Nc1ncc(-c2cnn(C3CCN(C[C@H]4CC[C@H](CNc5cccc6c5C(=O)N(C5CCC(=O)NC5=O)C6=O)CC4)CC3)c2)nc1C(=O)O[C@@H](C(=O)Nc1ccc(F)cc1)c1ccccc1 (stereo partly shown) ?
A. range 1

###

# Tested on: FADD−/− Jurkat cells
# protocol_description: Necroptosis inhibition assay, TNF-α-induced necroptosis (CellTiter-Glo 2.0)
# Assay type: cell-based, human
# details: compound 10 μM; TNF-α 15 ng/mL, FADD−/− Jurkat cells
Provide the recorded Necroptosis inhibition assay (Rescue %) 10 μM for the entries that follow.
One number for each entry, in %.

Here are 8 compounds together with their reported answers.
>>> reported_value("Nc1ncc(-c2cnn(C3CCN(CCC4CCN(CC5CCN(c6cc7c(cc6F)C(=O)N(C6CCC(=O)NC6=O)C7=O)CC5)CC4)CC3)c2)nc1C(=O)O[C@@H](C(=O)Nc1ccc(F)cc1)c1ccccc1 (stereo partly drawn)")
"−67.06"
>>> reported_value("Nc1ncc(-c2cnn(C3CCN(CCCN4CCN(C(=O)Cc5cccc(NC6=CC(=O)N(C7CCC(=O)NC7=O)C6=O)c5)CC4)CC3)c2)nc1C(=O)O[C@@H](C(=O)Nc1ccc(F)cc1)c1ccccc1 (stereo partly drawn)")
17.62
>>> reported_value("COc1ccc(C(=O)N2CCC(CCN3CCC(CN4CCC(n5cc(-c6cnc(N)c(C(=O)O[C@@H](C(=O)Nc7ccc(F)cc7)c7ccccc7)n6)cn5)CC4)CC3)CC2)cc1N1CCC(=O)NC1=O")
71.17
>>> reported_value("Nc1ncc(-c2cnn(C3CCN(C[C@H]4CC[C@H](CNC(=O)Cc5cccc(NC6=CC(=O)N(C7CCC(=O)NC7=O)C6=O)c5)CC4)CC3)c2)nc1C(=O)O[C@@H](C(=O)Nc1ccc(F)cc1)c1ccccc1 (stereo partly drawn)")
16.6
>>> reported_value("Nc1ncc(-c2cnn(C3CCN(C(=O)CC4CCN(C(=O)CC5CCN(c6ccc7c(c6)C(=O)N(C6CCC(=O)NC6=O)C7=O)CC5)CC4)CC3)c2)nc1C(=O)O[C@@H](C(=O)Nc1ccc(F)cc1)c1ccccc1 (stereo partly drawn)")
19.16
>>> reported_value("Nc1ncc(-c2cnn(C3CCN(C4CC5(CCN(CC6CCN(C(=O)C7CCN(C8=CC(=O)N(C9CCC(=O)NC9=O)C8=O)CC7)CC6)CC5)C4)CC3)c2)nc1C(=O)O[C@@H](C(=O)Nc1ccc(F)cc1)c1ccccc1 (stereo partly drawn)")
0.38
>>> reported_value("Nc1ncc(-c2cnn(C3CCN(C(=O)CCC4CCN(C(=O)CNc5ccc6nnn(C7CCC(=O)NC7=O)c(=O)c6c5)CC4)CC3)c2)nc1C(=O)O[C@@H](C(=O)Nc1ccc(F)cc1)c1ccccc1 (stereo partly drawn)")
20.87
>>> reported_value("Nc1ncc(-c2cnn(C3CCN(CCCN4CCN(C(=O)COc5ccc6c(c5)C(=O)N(C5CCC(=O)NC5=O)C6=O)CC4)CC3)c2)nc1C(=O)O[C@@H](C(=O)Nc1cccc(Cl)c1)c1ccccc1 (stereo partly drawn)")
50.03

# input for lookup
Q. May I ask what Necroptosis inhibition assay (Rescue %) 10 μM has been recorded for `COc1ccc(C(=O)N2CCC(C(=O)N3CCC(CCN4CCC(CN5CCC(n6cc(-c7cnc(N)c(C(=O)O[C@@H](C(=O)Nc8ccc(F)cc8)c8ccccc8)n7)cn6)CC5)CC4)CC3)CC2)cc1N1CCC(=O)NC1=O` ?
A. 66.18
